The values you see were collected from PubChem BioAssay.

Measured inhibition values are reported for all entries that follow.
Test: inhibitors of Sendai virus-induced IRF3 signaling, primary screen, TLR/RLR signaling modifier project, cell-based, Sendai virus stimulus, luciferase, 10K MLSCN set (AID 602276);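 note: firefly luciferase from ISG56 promoter only with Renilla not read in this screen; 0% = Sendai virus plus DMSO and 100% = medium plus DMSO without virus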
Conditions: HEK293 RL24 IRF3 luciferase reporter, at 10 µM, stronger effect = higher value
propertyMeasured: inhibition (%)

molecule: COCC(=O)N(c1ccc(C(C)C)cc1)C1C=CS(=O)(=O)C1 (stereo unspecified)
assayResult: 7.64
//
molecule: CSc1ccccc1NC(=O)c1cnc2n(c1=O)CCS2
assayResult: 5.22
//
molecule: Cn1c(=O)c2c(nc(NCCNC(=O)c3ccco3)n2Cc2ccccc2Cl)n(C)c1=O
assayResult: -7.85
//
molecule: Nc1nc(-c2ccc(Cl)cc2)nn1C(=O)c1cccnc1
assayResult: -0.966
//
molecule: CNC(=O)c1ccsc1NC(=O)CN1C(=O)CCC1=O
assayResult: 6.37
//
molecule: O=C(NCc1ccccc1)c1ccc(OC2CSC2)cc1
assayResult: -8.59
//
molecule: CCOC(=O)C1CCN(c2c(N3CCCCCC3)c(=O)c2=O)CC1
assayResult: 8.92
//
molecule: CCC(C)(C)n1nnnc1C(c1cc2cc(OC)ccc2[nH]c1=O)N1CCc2ccccc21 (stereo unspecified)
assayResult: 14.9
//
molecule: COc1ccc(Cn2nnnc2CN2CCOCC2)cc1
assayResult: 16.9
//
molecule: CCC1(C)Cc2c(C#N)c(N)n(N)c(=S)c2CO1 (stereo unspecified)
assayResult: 9.11
//
molecule: Cc1ccc(-c2noc(-c3ccccc3C(=O)NCC3CCCO3)n2)cc1 (stereo unspecified)
assayResult: -20

---

Assay: inhibitors of E-selectin induction by TNFa, primary screen, imaging, HUVEC, immunofluorescence, MLSMR starter and 10KST1 sets (AID 487);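 note: signal is fraction of cell area covered by stained E-selectin grains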
Conditions: HUVEC TNFalpha-induced E-selectin immunofluorescence imaging, at 2 µM; stronger effect = higher value
Active and inactive are the calls of the source.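 The calls were made as follows: active = visually confirmed hit in the image check and inhibition above 20%; inconclusive = visually confirmed hit but inhibition not above 20%; inactive = no visual hit in the image check.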
propertyMeasured: inhibition

compound: Nn1c(SCC(=O)NC2CCCCC2)nnc1C1CC1
propertyMeasured: inhibition
assayResult: -36.9% (inactive)

compound: CCc1ccc(CCC(=O)Nc2ccc(C)c(C)c2)o1
propertyMeasured: inhibition
assayResult: -34.3% (inactive)

compound: O=C(NC1CCCCC1)c1ccc(S(=O)(=O)N2CCCCC2)cc1
propertyMeasured: inhibition
assayResult: -49.2% (inactive)

compound: CCOC(=O)CC(=O)CSc1nnc2sc3ccccc3n12
propertyMeasured: inhibition
assayResult: 27.3% (inactive)

compound: O=C(c1ccco1)N1CCN(C(=O)c2sccc2-c2ccccc2)CC1
propertyMeasured: inhibition
assayResult: -74.7% (inactive)

compound: CC1Cc2nc(SCC(=O)Nc3ccc4c(c3)OCO4)n(-c3ccc(F)cc3)c(=O)c2S1 (centres undefined)
propertyMeasured: inhibition
assayResult: -32.8% (inactive)

compound: Cc1cc(=O)oc(C)c1C(=O)NCCc1ccccc1
propertyMeasured: inhibition
assayResult: -1% (inactive)

compound: O=P(O)(CN1CCCCCC1)CN1CCCCCC1
propertyMeasured: inhibition
assayResult: 6% (inactive)

compound: CCC1(C)Cc2c(C#N)c(N)n(N)c(=S)c2CO1 (centres undefined)
propertyMeasured: inhibition
assayResult: -97% (inactive)

compound: Cc1nc2ccccc2c2c1C(=O)N(CCC1=CCCCC1)C2=O
propertyMeasured: inhibition
assayResult: -54.2% (inactive)

compound: CC1(C)Cc2c(c(-c3ccccc3Cl)[nH]c(=O)c2C#N)CO1
propertyMeasured: inhibition
assayResult: -106% (inactive)

compound: COc1ccccc1N1CCN(C(=O)c2ccc(S(=O)(=O)N3CCCCCC3)cc2)CC1
propertyMeasured: inhibition
assayResult: -59.2% (inactive)

compound: CCn1c(SCC(=O)C(C)(C)C)nnc1-c1cnccn1
propertyMeasured: inhibition
assayResult: -27.3% (inactive)

compound: CCOC(=O)CSc1nnc(NCC(=O)OC(C)C)c(=O)[nH]1
propertyMeasured: inhibition
assayResult: -81.4% (inactive)

compound: O=C(CSc1nc2ccccc2c(=O)n1CC1CCCCC1)N1CCOCC1
propertyMeasured: inhibition
assayResult: -6.6% (inactive)

compound: Cc1ccc(-c2n[nH]c(=O)c3ccccc23)cc1S(=O)(=O)NCCN1CCOCC1
propertyMeasured: inhibition
assayResult: -80.2% (inactive)

compound: CN1CCc2c(C#N)c(N3CCCCC3)nc(N3CCOCC3)c2C1
propertyMeasured: inhibition
assayResult: -129% (inactive)

compound: CCc1cccc2c(=O)c(C(=O)N3CCCCCC3)c[nH]c12
propertyMeasured: inhibition
assayResult: -31% (inactive)

compound: CCCc1nc2n[nH]c(N)c2c2c1CCCC2
propertyMeasured: inhibition
assayResult: -64.3% (inactive)

compound: COc1cccc(C(=O)c2sc(NC(C)C)nc2N)c1
propertyMeasured: inhibition
assayResult: 61.3% (inactive)

compound: CCCN1CCN(CCCNC(=O)Cn2ncc3c4ccccc4n(C)c3c2=O)CC1
propertyMeasured: inhibition
assayResult: -61.4% (inactive)

compound: O=C(c1ccc(-n2cnnn2)cc1)N1CCOCC1
propertyMeasured: inhibition
assayResult: 18.9% (inactive)

compound: Cc1ccc(NC(=O)Cn2nc(C)c3ccccc3c2=O)cc1
propertyMeasured: inhibition
assayResult: -60.9% (inactive)

compound: N#Cc1nc(-c2cccs2)oc1NCc1ccccc1
propertyMeasured: inhibition
assayResult: -23.3% (inactive)

---

Each entry below carries its recorded z-score.
Assay: DUSP6 inhibitors restoring Erk phosphorylation by chemical complementation, primary imaging in DUSP6-transfected HeLa (AID 609)
Details: HeLa MKP-3 transfected, phospho-Erk imaging KS statistic; measured here: nuclear c-Myc green intensity z-score; at 10 µM; cells stimulated with TPA for 15 min

compound: CCc1ccc(-c2cn3nc(C)c(C)nc3n2)cc1
z-score: -1.56
//
compound: N/C(=N\S(=O)(=O)c1ccc(Cl)s1)c1ccccc1
z-score: -1.89
//
compound: N#Cc1nc(-c2ccc(F)cc2)oc1N1CCCC1
z-score: 1.06
//
compound: Cc1ccc(OCC(=O)N(C)CCc2ccccn2)cc1
z-score: -1.49
//
compound: CSc1nncc(=O)[nH]1
z-score: -0.545
//
compound: COC(=O)c1ccc(CSc2nc(N3CCOCC3)c3c(c2C#N)CC(C)(C)OC3)o1
z-score: -0.6
//
compound: Cn1c(=O)c2c(nc(NCc3ccco3)n2Cc2ccccc2Cl)n(C)c1=O
z-score: -0.74
//
compound: CSc1cc(C)nc(N(C)C(C)=O)n1
z-score: 1.16
//
compound: COC(=O)C(NC(=O)c1ccco1)(Nc1nc(C)cs1)C(F)(F)F (centres undefined)
z-score: 0.248
//
compound: COc1ccc(CC(=O)OCN2C(=O)c3ccccc3C2=O)cc1
z-score: -1.2
//
compound: O=C1CC(c2ccco2)CC(O)=C1C=NCCN1CCN(C2CC(=O)N(c3ccccc3)C2=O)CC1 (centres undefined)
z-score: 0.592
//
compound: Cc1cccn2c(=O)c(/C=C(\C#N)S(=O)(=O)c3ccccc3)c(N3CCN(C)CC3)nc12
z-score: -1.21
//
compound: COC(=O)c1ccc(C2/C(=C(\O)c3cccc(OC)c3)C(=O)C(=O)N2CCCN(C)C)cc1 (centres undefined)
z-score: -1.05
//
compound: CN(C)CCCNCCCCNC(=O)/C=N/O
z-score: -0.575
//
compound: CCO/C(C)=N/n1c2nc3ccccc3nc2c2c(=O)n(Cc3ccccc3Cl)c(C)nc21
z-score: -0.543
//
compound: CCCc1nc2n[nH]c(N)c2c2c1CCCC2
z-score: -0.89
//
compound: C=CC[N+](C)(C)CCCNC(=O)/C=N/O
z-score: -0.161
//
compound: Cc1nnc(N2CCOCC2)c2ccccc12
z-score: 0.102
//
compound: COc1cccc(N2CCN(C(=O)c3ccc(=O)oc3)CC2C)c1 (centres undefined)
z-score: -0.0742
//
compound: COCc1[nH]nc2c1C(c1ccc(OC)cc1)C(C#N)=C(N)O2 (centres undefined)
z-score: 0.0391
//
compound: CCOC(=O)C1=Nc2ccccc2C1=[N+]=[N-]
z-score: 0.636
//
compound: COC(=O)/C=c1/s/c(=C(\C#N)C(=O)NCc2ccco2)n(-c2ccccc2)c1=O
z-score: -0.55
//
compound: O=c1c2c3c(sc2n2cnnc2n1C1CCCCC1)CCC3
z-score: -0.714
//
compound: Cn1c(=O)c2c3c(sc2n2c(SCC(=O)c4ccccc4)nnc12)COC(C)(C)C3
z-score: -0.107

---

Biological target: Voltage-gated potassium channel subunit beta-2 (Rattus norvegicus)
Assay: KvBeta enzyme negative modulators, primary screen, biochemical, NADPH fluorescence (AID 622);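 note: slope of raw intensity against log time taken from 70 to 1610 s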
Conditions: recombinant KvBeta, 4-cyanobenzaldehyde reduction, at 10 µM
The source made the active and inactive calls.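 The calls were made as follows: active = fluorescence slope higher than the sample average by over 3 SD (cut at about -0.22 in these data, passing the limit was not always enough); inactive = the rest.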
Classes used: active, inactive

molecule: O=C(O)c1cc2cccc(S(=O)(=O)N3CCOCC3)c2cc1O
className: active
//
molecule: COc1cc(C(=O)Nc2ccc(O)cc2C(=O)O)ccc1OC(C)=O
className: inactive
//
molecule: C=COC(=O)CSc1snc(SCC(=O)OC)c1C#N
className: inactive
//
molecule: Cn1c(=O)oc2cc(S(=O)(=O)N3CCN(c4ccccn4)CC3)ccc21
className: inactive
//
molecule: O=C(CCCn1c(=O)c2sccc2n(Cc2cc(=O)n3ccccc3n2)c1=O)NCc1ccco1
className: inactive
//
molecule: CCCOc1ccc(N2C(=O)CC(SCCN)C2=O)cc1 (stereo unspecified)
className: inactive
